readoutName: melting point

Worked set:
Recorded melting point for `C(=C\c1nc2ccccc2n1-c1ccccn1)/c1ccsc1` , please? 136 °C

Recorded melting point for `COc1ccccc1CNc1ccc2cc(Nc3cccc(C(F)(F)F)n3)ccc2n1` , please? 151 °C

Recorded melting point for `CCS(=O)(=O)c1ccccc1S(N)(=O)=O` , please? 179 to 181 °C

Recorded melting point for CCOC(=O)C#CC(OC(N)=O)c1ccccc1 (stereo not given) , please? 82 °C

Next:
Recorded melting point for `CN(C)CCOc1ccc(C(=C(c2ccccc2)C(F)(F)F)c2ccc(O)cc2)cc1` , please? 149 to 155 °C

Recorded melting point for `Oc1ncnc2c(-c3ccc(Cc4ccccc4)cc3)cnn12` , please? 300 to 303 °C

Recorded melting point for `COC(=O)CCn1c(=O)n(CCN2CCN(c3ccc(OC)cc3)CC2)c(=O)c2cscc21` , please? 151 to 152 °C

Recorded melting point for `COc1cc2c(cc1Nc1ncc(Cl)c(Nc3cc(C#N)ccc3OC)n1)CCN(CC(=O)N(C)C)CC2` , please? 86 to 105 °C

Recorded melting point for O=C1C[C@@H]2CCC(c3ccccc3)=C[C@@H]2O1 (relative stereo) , please? 90 to 92 °C

Recorded melting point for `COc1cc(Nc2ncc(N)c(-c3ccccc3)n2)cc(OC)c1OC` , please? 149 to 150 °C
